- assay_summary: E. coli DRC41 culture turbidity changes, primary screen, E. coli filamentation inducer project, strain DRC41, OD650, 48 h (AID 1152);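 further: E. coli MC1000 strain DRC41 lacking acrAB efflux pump and sulA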
- measurement_setup: E. coli DRC41 (acrAB sulA), higher = more signal, called active from +8 up or from −8 down
# cutoff 0.3 applies to z-score; >= gives True, < gives False

# smiles_code, label_value
records = [
    ("C=C(COC)C(=O)CC[C@@H](OC(C)=O)c1ccc(CO)o1", "False"),
    ("COCCOC(=O)N1C(=O)[C@@]2(c3cc(C#CCC(C(=O)OC)C(=O)OC)ccc31)[C@H](C(=O)Nc1nc3ccccc3s1)[C@H]1C(=O)O[C@H](c3ccccc3)[C@H](c3ccccc3)N1[C@@H]2c1ccccc1OCCO", "False"),
    ("COCCOC(=O)N1C(=O)[C@@]2(c3cc(C#CC4(O)CCCCCC4)ccc31)[C@H](c1ccccc1OCCO)N1[C@H](c3ccccc3)[C@H](c3ccccc3)OC(=O)[C@H]1[C@@H]2C(=O)N1CCN(c2ncccn2)CC1", "True"),
    ("CC(C)C(=C=CC[C@H](O)c1ccc(OCCO)cc1)CCO", "False"),
    ("C=CCOC(=O)[C@@H]1[C@H]2C(=O)O[C@H](c3ccccc3)[C@H](c3ccccc3)N2[C@H](c2ccc(OCCOC(=O)[C@H]3C[C@H]4C(=O)N5CCC[C@H]5C(=O)N4[C@H]3c3ccc(O)cc3)cc2)[C@@]12C(=O)Nc1ccc(I)cc12", "True"),
    ("C=C(CC1([C@@H](NP(=O)(c2ccccc2)c2ccccc2)[C@H]2C[C@@H]2CCCC)CC1)c1ccccc1", "False"),
]
